Hello, the source for this data is patent US20160185837A1, in case you need it.

- experimental target: human glucagon receptor (human, UniProt P47871 26-477)
- assay procedure: cell-based or functional assay
Recorded measurements of cAMP EC50, Batch 2, one per entry
Your answer should be a plain number; it is taken to be in nM.

Answered cases to consult:
INSERT INTO assay_data (binder, unit_descriptor, test_result) VALUES
  ('IP201 (Fc fusion) YSEGTFTSDYSKLLEEEAVRLFIEWLLAGPSSGAPPPSAAAGGSGSTASSGSGSATGGGGAATHTCPPCPAPEF', 'nM', 11),
  ('IP200 (Fc fusion) YSQGTFTSDYSKILEEEAVRLFIEWLVKGPAAAGGSGSTASSGSGSATGGGGAATHTCPPCPAPEF', 'nM', 0.083),
  ('IP328 (Fc fusion) YSEGTFTSDYSKLLEEEAVRLFIEWLLAGGGGGGGSGGGGSGGGGSGGGGSGGGGSGGGGSGGGGSGGGGSA', 'nM', 13),
  ('IP325 (Fc fusion) YSEGTFTSDYSKLLEEEAVRLFIEWLVKGPGGGGGSGGGGSGGGGSGGGGSGGGGSGGGGSGGGGSGGGGSA', 'nM', 110),
  ('IP024 (Fc fusion) YSEGTFTSDYSKLLEEEAVRLFIEWLLAGAAAGGSGSTASSGSGSATGGGGAATHTCPPCPAPEF', 'nM', 25),
  ('IP280 (Fc fusion) YSEGTFTSDYSKLLEEEAVRLFIEWLVKGGPSSGAPPPSGGGGGSGGGGSGGGGSGGGGSATHTCPPC', 'nM', 270);

Kindly consider the entry below.
Inquiry: cAMP EC50, Batch 2 lookup needed for IP243 (Fc fusion) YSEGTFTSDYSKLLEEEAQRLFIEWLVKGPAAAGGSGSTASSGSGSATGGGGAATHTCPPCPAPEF , thanks.
Reply text: 1400
